# assay overview: Plasma pharmacokinetics of ATX-101 on first infusion day, non-compartmental (Phoenix WinNonlin)
# assay setup: human, plasma, iv, 20 mg/m2
Ends that are not written are not given here.
measure: Cmax
Don't forget the unit after the value.

Any idea what Cmax was measured for Ac-MDRWLVKWKKKRKIRRRRRRRRRRR (N-terminus assumed) [ATX-101] ? 468 ng/mL

====

# assay overview: Plasma pharmacokinetics of ATX-101 on first infusion day, non-compartmental (Phoenix WinNonlin)
# assay setup: human, plasma, iv, 30 mg/m2
Ends that are not written are not given here.
measure: AUC(0-inf) (ng·h/mL)
Field: numeric (ng·h/mL). Do not append units.

What value of AUC(0-inf) has been reported for the following substance? Ac-MDRWLVKWKKKRKIRRRRRRRRRRR (N-terminus assumed) [ATX-101] 2080
